Biological target: Human CARM1 (PRMT4) (Homo sapiens)
Construct: Flag-CARM1-His; made in house; host or cells: HEK 293F cells (BacMam baculovirus)
Sequence (Q86X55 1-585 isoform Q86X55-1): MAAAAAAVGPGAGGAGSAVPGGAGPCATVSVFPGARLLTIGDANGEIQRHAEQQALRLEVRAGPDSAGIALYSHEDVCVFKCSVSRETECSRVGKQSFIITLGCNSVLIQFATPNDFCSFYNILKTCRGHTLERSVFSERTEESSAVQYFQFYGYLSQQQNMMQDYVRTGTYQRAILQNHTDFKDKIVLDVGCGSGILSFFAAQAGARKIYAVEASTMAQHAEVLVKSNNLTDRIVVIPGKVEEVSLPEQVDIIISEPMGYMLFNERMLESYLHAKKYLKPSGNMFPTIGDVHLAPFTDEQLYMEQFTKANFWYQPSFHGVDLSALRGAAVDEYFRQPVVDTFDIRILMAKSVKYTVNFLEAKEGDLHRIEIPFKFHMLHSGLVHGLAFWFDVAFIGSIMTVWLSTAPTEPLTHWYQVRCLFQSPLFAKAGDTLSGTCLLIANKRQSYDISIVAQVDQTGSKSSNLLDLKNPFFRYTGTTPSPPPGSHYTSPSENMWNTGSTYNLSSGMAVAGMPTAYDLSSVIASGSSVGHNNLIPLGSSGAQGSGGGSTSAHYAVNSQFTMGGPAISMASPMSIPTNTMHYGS
Assay: CARM1 Biochemical Assay
Conditions: PRMT4 IC50, biochemical evaluation, CARM1 (PRMT4), peptide substrate
Kindly supply the reported IC50 values for the records listed here.

>>> result("CNCCN(C)Cc1n[nH]c2ccc(OC3CCOC3)cc12 (stereo not shown) [Compound 25]")
"101 to 1000 nM"

Below are some compounds; for each one, tell me its IC50.
1. CNCCN(C)Cc1n[nH]c2ccc(Oc3ccc(OC)cc3)cc12 [Compound 59]
2. CNCCN(C)Cc1nn(C2CCN(C(C)=O)CC2)c2ccc(OCc3ccc(C#N)cc3)cc12 [Compound 38]

Key:
["< 100 nM", "1010 to 3000 nM"]

Below are some compounds; for each one, tell me its IC50.
1. CNCCN(C)Cc1n[nH]c2ccc(C3=CCOCC3)cc12 [Compound 45]
2. CNCCN(C)Cc1n[nH]c2ccc(Oc3ccccc3OC)cc12 [Compound 24]
3. CNCCN(C)Cc1n[nH]c2ccc(C3CCCCC3)cc12 [Compound 47]
4. CNCCN(C)Cc1n[nH]c2ccc(OC3CCOCC3)cc12 [Compound 29]

Key:
1. 101 to 1000 nM
2. < 100 nM
3. 101 to 1000 nM
4. 101 to 1000 nM

Below are some compounds; for each one, tell me its IC50.
1. CNCCN(C)Cc1n[nH]c2ccc(OCc3cccc(C(C)(C)C)c3)cc12 [Compound 74]
2. CNCCN(C)Cc1n[nH]c2ccc(Oc3ccccc3OC(C)C)cc12 [Compound 56]
3. CNCCN(C)Cc1n[nH]c2ccc(O)cc12 [Compound 36]

Key:
["101 to 1000 nM", "101 to 1000 nM", "3010 to 10000 nM"]

----------
Target: human PRMT1 (Homo sapiens)
Construct: GST-tagged PRMT1; made in house; host or cells: High Five insect cells (baculovirus)
Sequence (Q99873 other isoform, or with tags, fused parts or gaps): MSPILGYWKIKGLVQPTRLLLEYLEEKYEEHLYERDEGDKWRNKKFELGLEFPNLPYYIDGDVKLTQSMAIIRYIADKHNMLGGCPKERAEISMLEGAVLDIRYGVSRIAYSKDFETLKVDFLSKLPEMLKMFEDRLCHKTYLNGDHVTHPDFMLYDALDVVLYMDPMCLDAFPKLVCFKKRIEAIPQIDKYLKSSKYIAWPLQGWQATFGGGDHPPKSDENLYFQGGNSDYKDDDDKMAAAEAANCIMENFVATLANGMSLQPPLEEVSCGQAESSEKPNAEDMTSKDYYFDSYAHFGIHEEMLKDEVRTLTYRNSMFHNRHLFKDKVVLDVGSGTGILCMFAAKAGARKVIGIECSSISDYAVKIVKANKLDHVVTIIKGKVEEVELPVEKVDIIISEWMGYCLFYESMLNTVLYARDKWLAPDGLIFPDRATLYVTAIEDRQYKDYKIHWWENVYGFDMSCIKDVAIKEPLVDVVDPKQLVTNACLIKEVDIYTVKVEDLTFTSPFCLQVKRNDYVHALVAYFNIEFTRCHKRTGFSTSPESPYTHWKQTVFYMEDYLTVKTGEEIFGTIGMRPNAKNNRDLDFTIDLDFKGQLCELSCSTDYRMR
Assay: biochemical
Conditions: biochemical evaluation, peptide substrate; read-out: PRMT1 IC50
pIC50: −log10 of the molar value.
outcome.measure: pIC50

The cases that follow already have their pIC50 on record.
>>> result("CNCCN(C)Cc1n[nH]c2ccc(Oc3cccc(Cl)c3)cc12")
"> 7.00"
>>> result("CNCCN(C)Cc1n[nH]c2ccc(Oc3ccc(OC(C)C)cc3)cc12")
"> 7.00"
>>> result("CNCCN(C)Cc1n[nH]c2ccc(Oc3ccc(Cl)cc3)cc12")
"6.00 to 7.00"
>>> result("CNCCN(C)Cc1n[nH]c2ccc(Oc3cccc(C#N)c3)cc12")
"> 7.00"
>>> result("CNCCN(C)Cc1n[nH]c2ccc(OC(C)Cc3ccccc3)cc12 (centres unmarked)")
"> 7.00"
>>> result("CNCCN(C)Cc1n[nH]c2ccc(OCCC(C)C)cc12")
"> 7.00"
>>> result("CNCCN(C)Cc1n[nH]c2ccc(OCc3cccc(C(C)=O)c3)cc12")
"> 7.00"
>>> result("CNCCN(C)Cc1n[nH]c2ccc(C3CCCCC3)cc12")
"≥ 7.00"

Below are some compounds; for each one, tell me its pIC50.
1. CNCCN(C)Cc1n[nH]c2ccc(Oc3ccc(OC)cc3)cc12
2. CNCCN(C)Cc1n[nH]c2ccc(OCc3ccccn3)cc12
3. CNCCN(C)Cc1n[nH]c2cccc(OCc3ccccc3)c12
4. CNCCN(C)Cc1n[nH]c2ccc(C3=CCCCC3)cc12
5. CNCCN(C)Cc1n[nH]c2ccc(OCCCOC)cc12
6. CNCCN(C)Cc1n[nH]c2ccc(O)cc12

Key:
> 7.00
> 7.00
> 7.00
≥ 7.00
> 7.00
6.00 to 7.00
